Biological target: PDL1, Q9NZQ7
Sequence (Q9NZQ7 whole entry): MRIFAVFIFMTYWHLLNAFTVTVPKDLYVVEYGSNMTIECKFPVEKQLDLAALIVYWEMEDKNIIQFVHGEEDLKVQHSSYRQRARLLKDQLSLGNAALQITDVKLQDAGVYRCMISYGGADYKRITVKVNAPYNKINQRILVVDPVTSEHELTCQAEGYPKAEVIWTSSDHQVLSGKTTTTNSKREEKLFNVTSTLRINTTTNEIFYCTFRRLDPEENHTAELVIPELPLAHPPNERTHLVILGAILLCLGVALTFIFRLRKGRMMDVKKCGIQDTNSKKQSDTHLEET
measured_property: binding in a display sort

binder	recorded_result
d8r1_design_ppi_705_dldesign_0_cycle1_af2pred (protein) MSKLTQAMLHYGRALAAAVALADDPEAAGKAVSAEMAEAAKVAAAGSPEVQKQALEAGEIIVEQIKKVNPEVGAKAAEAVKTTLAKL	not found (inactive)
d8r1_design_ppi_753_dldesign_0_cycle0_af2pred (protein) SAEAQAALAGARAAVAGAELLVEVAEETGSQGALRAAKRAAEAAEEAARKAAELGAEEEARELEERAREVRERAEKLE	not found (inactive)
